Listing of recorded pKi by entry.
# Tgt: UniProt:Q9H3N8
# Assay Remarks: Binding assay on recombinant human histamine H4 receptor ([3H]histamine competition, SK-N-MC cell membranes)
# Test Conditions: membranes harvested with cell harvester; [3H]histamine 10 nM; average of results; read-out: Cell Harvester Ki
The meaning of pKi here: minus log10 of the concentration in molar units.

Quickly give me recorded pKi for `N[C@@H]1CCN(c2cnnc(NCCc3ccccc3)c2)C1` 5.76

###

# Tgt: human H4 receptor (Homo sapiens (Human), UniProt Q9H3N8)
# Sequence (Q9H3N8 whole entry): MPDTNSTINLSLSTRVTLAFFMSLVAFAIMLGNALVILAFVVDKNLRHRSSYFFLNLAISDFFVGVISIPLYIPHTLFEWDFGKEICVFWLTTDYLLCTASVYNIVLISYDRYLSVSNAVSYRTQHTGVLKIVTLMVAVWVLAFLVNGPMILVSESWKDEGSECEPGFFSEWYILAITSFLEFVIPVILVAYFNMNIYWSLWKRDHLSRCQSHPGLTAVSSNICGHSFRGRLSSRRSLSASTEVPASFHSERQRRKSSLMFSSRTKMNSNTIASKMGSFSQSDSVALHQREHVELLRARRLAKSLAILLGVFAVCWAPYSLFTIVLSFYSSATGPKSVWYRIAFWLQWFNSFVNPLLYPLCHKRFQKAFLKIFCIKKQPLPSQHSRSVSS
# Assay Remarks: Binding assay on recombinant human histamine H4 receptor ([3H]histamine competition, SK-N-MC cell membranes)
# Test Conditions: membranes harvested with cell harvester; [3H]histamine 10 nM; average of results; read-out: Cell Harvester Ki
pKi: −log10 of the molar value. Where a name gives a salt, the structure may show the parent alone.
Where pKi equals or exceeds 7, the correct label is Satisfied; where it does not, the label is Not satisfied.

# count of solved cases: 8
CN[C@@H]1CCN(c2ccnc(Nc3ccccc3)c2)C1 [Example 33]
Satisfied
CC1(C)[C@H]2CC[C@H](CNc3cc(N4CC(N)C4)cnn3)[C@@H]1C2 [Example 306]
Not satisfied
c1cc(N2C[C@H]3CCN[C@H]3C2)nc(NC2CCCC2)n1 [Example 139]
Satisfied
N[C@@H]1CCN(c2ccnc(NCC3CC3)n2)C1 [Example 24]
Satisfied
c1cc(N2CCNCC2)nc(NC2CCCC2)n1 [Example 63]
Not satisfied
N[C@H]1CCN(c2cnnc(NCC3CCCC3)c2)C1 [Example 317]
Not satisfied
N[C@H]1CCN(c2ccnc(NCc3ccccn3)c2)C1 [Example 258]
Not satisfied
CN[C@@H]1CCN(c2ccnc(NCC3CCCO3)c2)C1 (some centres unmarked) [Example 6, dihydrochloride]
Satisfied

Does CC(C)(O)CNc1nccc(N2CC[C@H](N)C2)n1 [Example 110] have a reported pKi of at least 7? Not satisfied

Does CC(C)(C)CNc1cc(N2CCCNCC2)cnn1 [Example 307] have a reported pKi of at least 7? Not satisfied

Does CCCCNc1cc(N2CC[C@@H](N)C2)ccn1 [Example 254] have a reported pKi of at least 7? Satisfied

Does N[C@@H]1CCN(c2ccnc(NCCCC(F)(F)F)n2)C1 [Example 150] have a reported pKi of at least 7? Satisfied

Does CNC1CN(c2ccnc(NCC(C)(C)CO)n2)C1 [Example 136] have a reported pKi of at least 7? Not satisfied

Does c1cc(N2C[C@H]3CCN[C@H]3C2)cc(NC2C3CC4CC(C3)CC2C4)n1 (some centres unmarked) [Example 266] have a reported pKi of at least 7? Satisfied

Does OCCCNc1nccc(N2CCNCC2)n1 [Example 137] have a reported pKi of at least 7? Not satisfied

The measurements presented in this section are drawn from patent US9732087B2.
